Data provenance: PubChem BioAssay AID2060509

Reported viability, T/C values are given for each entry in this list.
Test system: 485176-168-R4-J1-PDC spheroids with HUVEC/MSC, viability;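 further: spheroids exposed to compounds for seven days before readout; percent viability relative to DMSO vehicle control wells as 100%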
ASSAY OVERVIEW: Anticancer human tumor 485176-168-R4-J1-PDC patient-derived pancreatic adenocarcinoma cell line growth inhibition [GQUAD]
TEST CONDITIONS: second compound 10 µM; first compound 3.16 µM; hits give low values

{"MOLECULE": "Cc1cccc(N(C)C(=O)C2C(O)CCN2c2nc(C)cc(C(F)(F)F)c2C#N)c1 (stereo not given) + Cc1[nH]c2ccc(F)cc2c1-c1nc2c3cccnc3c3ncccc3c2[nH]1", "TARGET": "485176-168-R4-J1-PDC spheroids with HUVEC/MSC, viability", "RESULT UNIT": "%", "viability, T/C": 78.2}
{"MOLECULE": "C=CCn1c(=O)c2cnc(Nc3ccc(N4CCN(C)CC4)cc3)nc2n1-c1cccc(C(C)(C)O)n1 + CN(C)c1ccc(Nc2c3ccc(NC(=O)CCN4CCCC4)cc3nc3cc(NC(=O)CCN4CCCC4)ccc23)cc1", "TARGET": "485176-168-R4-J1-PDC spheroids with HUVEC/MSC, viability", "RESULT UNIT": "%", "viability, T/C": 9.3}
{"MOLECULE": "O=C(c1cc(Cc2n[nH]c(=O)c3ccccc23)ccc1F)N1CCN(C(=O)C2CC2)CC1 + CN(C)c1ccc(Nc2c3ccc(NC(=O)CCN4CCCC4)cc3nc3cc(NC(=O)CCN4CCCC4)ccc23)cc1", "TARGET": "485176-168-R4-J1-PDC spheroids with HUVEC/MSC, viability", "RESULT UNIT": "%", "viability, T/C": 84.7}
{"MOLECULE": "C#Cc1c(F)ccc2cc(O)cc(-c3ncc4c(N5CC6CCC(C5)N6)nc(OCC56CCCN5CC(F)C6)nc4c3F)c12 (stereo not given) + CN(C)c1ccc(Nc2c3ccc(NC(=O)CCN4CCCC4)cc3nc3cc(NC(=O)CCN4CCCC4)ccc23)cc1", "TARGET": "485176-168-R4-J1-PDC spheroids with HUVEC/MSC, viability", "RESULT UNIT": "%", "viability, T/C": 70.8}
{"MOLECULE": "CC1COCCN1c1cc(-c2ccnn2C)c2ccnc(-c3ccn[nH]3)c2n1 (stereo not given) + Cc1[nH]c2ccc(F)cc2c1-c1nc2c3cccnc3c3ncccc3c2[nH]1", "TARGET": "485176-168-R4-J1-PDC spheroids with HUVEC/MSC, viability", "RESULT UNIT": "%", "viability, T/C": 11.2}
